Record form. Attribute: T/C. Fill in for each entry.
- Test system: P388 leukemia ip, CD2F1 mice, survival T/C
- measurement protocol: NCI In Vivo Anticancer Drug Screen. Data for tumor model P388 Leukemia (intraperitoneal) in CD2F1 (CDF1) mice
- applied conditions: endpoint: median survival time; dose: 200.0 mg/kg/injection; schedule: Q04DX003 (ip); vehicle: Klucel (hydroxypropylcellulose) (HPC); higher = longer survival
Inconclusive results and toxic doses are left out.

Q: Any idea what its T/C is? The compound is NC(=O)c1cc([N+](=O)[O-])ccc1N=NN(CCCl)Cc1ccccc1
A: 122 % of control

Q: Any idea what its T/C is? The compound is CCOC1=C(C#N)C(SC)=CS(C)(=O)=C1 (stereo not given)
A: 101 % of control

Q: Any idea what its T/C is? The compound is OC(CCl)c1ccc2ccc3c(c2c1)Nc1ccccc1S3 (stereo not given)
A: 104 % of control

Q: Any idea what its T/C is? The compound is CC(=O)c1c(C)nc2c(-c3ccccc3)[nH]c(C)c2c1C
A: 102 % of control

Consider now this further compound.
Q: Any idea what its T/C is? The compound is CN(C)S(=O)(=O)N1CCOCC1
A: 93 % of control

---

- Test system: P388 leukemia ip, CD2F1 mice, survival T/C
- measurement protocol: NCI In Vivo Anticancer Drug Screen. Data for tumor model P388 Leukemia (intraperitoneal) in CD2F1 (CDF1) mice
- applied conditions: endpoint: median survival time; dose: 50.0 mg/kg/injection; schedule: Q01DX005 (ip); vehicle: Klucel (hydroxypropylcellulose) (HPC); higher = longer survival
Toxic doses and inconclusive results are not listed.
Record form. Attribute: T/C. Fill in for each entry.

Known T/C results, listed for orientation:
Q: Any idea what its T/C is? The compound is CN(C)CCCNC(=S)C(=S)NCCCN(C)C
A: 97 % of control

Q: Any idea what its T/C is? The compound is Fc1ccc(Nc2c3ccccc3nc3c2cnn3-c2ccccc2)cc1
A: 91 % of control

Q: Any idea what its T/C is? The compound is CCOC(=O)CCSC(=O)NCCCCCCNC(=O)SCCC(=O)OCC
A: 98 % of control

Q: Any idea what its T/C is? The compound is CC1=NN(C(C)(C)C)[Si]2(C(C)(C)C)C1[Si]1(C(C)(C)C)C2C(C)=NN1C(C)(C)C (stereo not given)
A: 86 % of control

Q: Any idea what its T/C is? The compound is CN(N=O)C(=O)Nc1cc(=O)[nH]c(SCc2ccccc2)n1
A: 124 % of control

For every item below, please supply its T/C.
1. Cc1ccsc1C(=O)c1ccccc1[N+](=O)[O-]
2. O=C1c2ccccc2C(=O)C1C(=Nc1ccc(F)cc1)c1ccccc1
3. CC12c3ccccc3C(C)(c3ccccc31)C(C(=O)O)C2Br (stereo not given)
4. O=C1NC(=O)C(CCCCCl)N1 (stereo not given)

A:
94 % of control
103 % of control
100 % of control
100 % of control

For every item below, please supply its T/C.
1. COC(=O)c1c(C)oc2ccccc2c1=O
2. O=C(N/N=C\c1c(O)ccc2ccccc12)C1CC1
3. CNC(=O)OCCC(OC(=O)NC)C1CCC2C3CC=C4CC(O)CCC4(C)C3CCC12C (stereo not given)

A:
1: 101 % of control; 2: 103 % of control; 3: 100 % of control

For every item below, please supply its T/C.
1. O=c1cc(C(F)(F)F)c2cc3c4c(c2o1)CCCN4CCC3
2. CCC(=O)Nc1nnc(SCCCCCCSc2nnc(NC(=O)CC)s2)s1
3. N#CCc1ccccc1-c1ccccc1
4. CN(C)C1=CC(=O)NC2CCCCC12 (stereo not given)
5. CC1=C(N2CCOCC2)C(N2CCOCC2)C(C)C1=O (stereo not given)

A:
["106 % of control", "90 % of control", "99 % of control", "95 % of control", "100 % of control"]

For every item below, please supply its T/C.
1. OCC1=C(CO)CC2=C(CC=CC2)C1
2. O=C(O)COc1cc2c(cc1Cc1ccc3c(c1)OCO3)OCO2

A:
1: 100 % of control; 2: 99 % of control

For every item below, please supply its T/C.
1. O=c1c2ccccc2oc2c(Br)c3c(c(O)c12)CCCC3
2. CC1CCC(n2cnc3c(Cl)ncnc32)O1 (stereo not given)
3. CCCn1c(CC)nc([N+](=O)[O-])c1Sc1ncn[nH]1
4. COc1ccc2c(CCN(/C=C/C(C)=O)C(C)=O)cn(C(C)=O)c2c1
5. CC1(C)OC2OC(C3COC(=S)O3)C(O)C2O1 (stereo not given)
6. N=C(N)Sc1cc(Br)c[n+]([O-])c1

A:
1: 103 % of control; 2: 103 % of control; 3: 108 % of control; 4: 100 % of control; 5: 98 % of control; 6: 104 % of control

---

- System: P388 leukemia ip, CD2F1 mice, survival T/C
- measurement protocol: NCI In Vivo Anticancer Drug Screen. Data for tumor model P388 Leukemia (intraperitoneal) in CD2F1 (CDF1) mice
- applied conditions: endpoint: median survival time; dose: 120.0 mg/kg/injection; schedule: Q01DX005 (ip); vehicle: saline; higher = longer survival
Inconclusive results and toxic doses are left out. Peptide text beside a SMILES is read from it.
measured endpoint: T/C

Known T/C results, listed for orientation:
Q: Any idea what its T/C is? The compound is CS(=O)CC(=N\O)/C(CS(C)=O)=N\O (stereo unspecified)
A: 108 % of control

Q: Any idea what its T/C is? The compound is COC(C(=O)CN(C)C)(c1ccccc1)c1ccccc1
A: 99 % of control

Q: Any idea what its T/C is? The compound is C[C@H](N)C(=O)NCCNC(=O)[C@H](C)N
A: 107 % of control

For every item below, please supply its T/C.
1. NC(Cc1cnc[nH]1)C(=O)NC(Cc1ccc(O)cc1)C(=O)O (stereo not drawn) (H-His-Tyr-OH; configuration not given here)
2. Nc1nc(-c2ccc(F)cc2)cc(-c2cc(-c3ccc(F)cc3)nc(N)n2)n1
3. O=C(n1ccnc1)C(F)(F)C(F)(F)F
4. Cc1cc(-c2cc(C)on2)no1

A:
["101 % of control", "105 % of control", "101 % of control", "103 % of control"]

For every item below, please supply its T/C.
1. CCCC1(c2ccccc2)CC(=O)NC1=O (stereo unspecified)
2. COC(=O)C(C)CSc1ccccc1 (stereo unspecified)

A:
["98 % of control", "107 % of control"]

For every item below, please supply its T/C.
1. C1CCCc2c(-c3noc4c3CCCCCC4)noc2CC1
2. COc1cc(C(=O)n2c(=O)oc(=O)c3cc([N+](=O)[O-])ccc32)cc(OC)c1OC
3. CC1CC2=C(C(=O)c3ccccc3C2=O)C(C)O1 (stereo unspecified)
4. COC(=O)C1CC(C)C1(OC)OC (stereo unspecified)
5. CCc1cc(CN2CCN(CCO)CC2)c(O)c(CN2CCN(CCO)CC2)c1
6. C[C@@H]1C[C@H](C)OC(CCl)O1 (stereo partly specified)

A:
1. 99 % of control
2. 94 % of control
3. 92 % of control
4. 107 % of control
5. 97 % of control
6. 102 % of control

Q: Any idea what its T/C is? The compound is NC(=O)[C@@H]1CCCN1C(=O)c1cccnc1
A: 97 % of control

---

- Tested on: P388 leukemia ip, CD2F1 mice, survival T/C
- measurement protocol: NCI In Vivo Anticancer Drug Screen. Data for tumor model P388 Leukemia (intraperitoneal) in CD2F1 (CDF1) mice
- applied conditions: endpoint: median survival time; dose: 15.0 mg/kg/injection; schedule: Q01DX005 (ip); vehicle: saline with Tween-80; higher = longer survival
Inconclusive results and toxic doses are left out.
measured endpoint: T/C

Known T/C results, listed for orientation:
Q: Any idea what its T/C is? The compound is CC1=Nc2nc(=NCCCN(C)C)nc3cccc(n23)N1
A: 99 % of control

Q: Any idea what its T/C is? The compound is COc1ccc(Cc2cc3c(cc2O)OCO3)cc1
A: 107 % of control

Q: Any idea what its T/C is? The compound is NC(CCl)=NCC1C2CC3CC(C2)CC1C3 (stereo unspecified)
A: 122 % of control

Q: Any idea what its T/C is? The compound is CCOC(=O)c1c(C#N)c2cnn(-c3ccccc3)c2n2cccc12
A: 98 % of control

Q: Any idea what its T/C is? The compound is O=C1OC(c2ccc(Cl)c(Cl)c2)C(=O)C1=O (stereo unspecified)
A: 102 % of control

---
Q: Any idea what its T/C is? The compound is CCCCCCCCCCCCCCCCCCCC(O)CCCCCCCCC (stereo unspecified)
A: 102 % of control
